molecular target: FGFR1 (Homo sapiens (Human), UniProt P11362); experiment: Kinase assay, binding constants (Kd), kinase-tagged T7 phage, qPCR
Sequence (P11362 22-822): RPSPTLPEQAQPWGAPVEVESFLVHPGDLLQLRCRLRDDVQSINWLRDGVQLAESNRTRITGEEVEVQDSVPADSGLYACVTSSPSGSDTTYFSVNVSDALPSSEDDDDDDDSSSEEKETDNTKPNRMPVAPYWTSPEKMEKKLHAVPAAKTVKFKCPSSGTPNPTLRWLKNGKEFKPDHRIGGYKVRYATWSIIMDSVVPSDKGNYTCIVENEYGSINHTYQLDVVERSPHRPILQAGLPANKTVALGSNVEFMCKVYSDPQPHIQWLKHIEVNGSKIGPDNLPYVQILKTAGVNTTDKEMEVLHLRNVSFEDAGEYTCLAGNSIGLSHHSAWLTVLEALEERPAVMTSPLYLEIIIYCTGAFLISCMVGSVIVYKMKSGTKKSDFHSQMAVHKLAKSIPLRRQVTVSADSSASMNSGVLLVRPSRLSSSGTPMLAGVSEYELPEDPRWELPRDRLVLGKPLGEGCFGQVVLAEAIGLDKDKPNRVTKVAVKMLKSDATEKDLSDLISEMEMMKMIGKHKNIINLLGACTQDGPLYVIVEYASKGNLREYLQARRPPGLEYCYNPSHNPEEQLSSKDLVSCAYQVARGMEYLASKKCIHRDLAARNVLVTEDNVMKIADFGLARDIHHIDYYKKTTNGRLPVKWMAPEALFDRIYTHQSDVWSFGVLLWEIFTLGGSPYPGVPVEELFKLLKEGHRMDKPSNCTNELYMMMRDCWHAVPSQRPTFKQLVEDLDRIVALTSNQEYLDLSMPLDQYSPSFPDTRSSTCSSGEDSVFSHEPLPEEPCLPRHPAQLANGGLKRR
Value Type: Kd

- C[C@@H](Oc1ccc2[nH]nc(-c3cnc(N4CC(C)(N)C4)c(C#N)c3)c2c1)c1c(Cl)cncc1Cl [Example 358]: 20 to 100 nM
- COc1cc2[nH]nc(-c3cnc(N4CCC4)c(C#N)c3)c2cc1O[C@H](C)c1c(Cl)cnnc1Cl [Example 360]: 100 to 300 nM
- CCOC(=O)N1CC2(C1)CN(c1ccc(-c3n[nH]c4ccc(O[C@@H](C)c5c(C)cnnc5C)cc34)cn1)C2 [Example 151]: > 300 nM
- COc1cc(-c2n[nH]c3ccc(O[C@H](C)c4c(C)cnnc4C)cc23)cnc1N1CCN2C(=O)NCC2C1 (stereo partly shown) [Example 328]: 100 to 300 nM

====

target: FGFR3 (V555M) (Homo sapiens (Human), UniProt P22607, V555M); assay: Kinase assay, binding constants (Kd), kinase-tagged T7 phage, qPCR; conditions: V555M mutant
Sequence (P22607 23-806 V555M): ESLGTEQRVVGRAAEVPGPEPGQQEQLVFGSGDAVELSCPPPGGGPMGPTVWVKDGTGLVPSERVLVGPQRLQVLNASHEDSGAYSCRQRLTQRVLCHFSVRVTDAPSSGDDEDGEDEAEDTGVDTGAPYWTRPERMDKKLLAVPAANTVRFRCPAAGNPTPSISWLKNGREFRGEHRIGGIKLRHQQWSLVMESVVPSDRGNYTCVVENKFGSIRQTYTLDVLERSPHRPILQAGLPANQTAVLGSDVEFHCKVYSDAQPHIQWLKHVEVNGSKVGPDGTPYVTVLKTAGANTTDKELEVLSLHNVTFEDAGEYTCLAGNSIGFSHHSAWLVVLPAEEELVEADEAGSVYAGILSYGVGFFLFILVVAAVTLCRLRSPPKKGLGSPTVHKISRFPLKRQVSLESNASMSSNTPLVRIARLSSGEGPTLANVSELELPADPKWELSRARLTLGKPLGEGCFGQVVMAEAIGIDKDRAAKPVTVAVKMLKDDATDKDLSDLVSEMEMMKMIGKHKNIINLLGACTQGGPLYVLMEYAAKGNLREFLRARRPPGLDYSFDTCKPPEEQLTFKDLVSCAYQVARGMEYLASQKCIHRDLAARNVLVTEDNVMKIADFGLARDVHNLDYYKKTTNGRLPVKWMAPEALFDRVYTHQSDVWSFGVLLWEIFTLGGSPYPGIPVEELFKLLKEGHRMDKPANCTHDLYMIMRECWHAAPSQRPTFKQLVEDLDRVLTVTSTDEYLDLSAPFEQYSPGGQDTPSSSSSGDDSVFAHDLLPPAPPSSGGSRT
Value Type: Kd

• C[C@@H](Oc1ccc2[nH]nc(-c3ccc(N4CCN(C(=O)N5CCN(C)CC5)CC4)nc3)c2c1)c1c(Cl)cncc1Cl [Example 4] = 1 to 20 nM
• CCS(=O)(=O)N1CCCC2(CN(c3ccc(-c4n[nH]c5ccc(O[C@H](C)c6c(C)cnnc6C)cc45)cn3)C2)C1 [Example 186] = 1 to 20 nM
• COc1cc2[nH]nc(-c3cnc(N4CC[C@@H]4C)c(S(C)(=O)=O)c3)c2cc1O[C@H](C)c1c(Cl)cncc1Cl [Example 375] = 20 to 100 nM
• C[C@@H](Oc1cc2c(-c3ccc(N4CC5(C4)CN(S(C)(=O)=O)C5)nc3)n[nH]c2cc1F)c1c(Cl)cnnc1Cl [Example 262] = 1 to 20 nM
• C[C@@H](Oc1cc2c(-c3ccc(N4CC5(C4)CN(S(C)(=O)=O)C5)nc3)n[nH]c2cc1Cl)c1c(Cl)cnnc1Cl [Example 263] = 1 to 20 nM
• C[C@@H](Oc1ccc2[nH]nc(-c3ccc(N4CC5(CNC5)C4)nc3)c2c1)c1c(Cl)cncc1Cl [Example 45] = 1 to 20 nM
• C[C@@H](Oc1ccc2[nH]nc(-c3ccc(N4CC5CC(C4)N5S(C)(=O)=O)nc3)c2c1)c1c(Cl)cncc1Cl [Example 20] = 1 to 20 nM
• Cc1cc(-c2n[nH]c3ccc(O[C@H](C)c4c(Cl)cnc(C)c4Cl)cc23)cnc1N1CC(CO)(CO)C1 [Example 234] = 1 to 20 nM
• CC(C)OC(=O)N1CCCC2(C1)CN(c1ncc(-c3n[nH]c4ccc(O[C@H](C)c5c(Cl)cncc5Cl)cc34)cn1)C2 [Example 135] = 1 to 20 nM
• COc1cc(-c2n[nH]c3ccc(O[C@H](C)c4c(C)cnnc4C)cc23)cnc1N1CC2CC(C1)N2CC(C)(C)O [Example 323] = 20 to 100 nM
• C[C@@H](Oc1ccc2[nH]nc(-c3cnc(N4CC(CC(F)(F)F)C4)c(C#N)c3)c2c1)c1c(Cl)cncc1Cl [Example 296] = 100 to 300 nM
• C[C@@H](Oc1ccc2[nH]nc(-c3cnc(N4CC5C(O)C5C4)c(C#N)c3)c2c1)c1c(Cl)cncc1Cl (some centres unmarked) [Example 331] = 1 to 20 nM
• C[C@@H](Oc1ccc2[nH]nc(-c3cnn(C4CCOCC4)c3)c2c1)c1c(Cl)cncc1Cl [Example 106] = 1 to 20 nM
• Cc1cnnc(C)c1[C@@H](C)Oc1ccc2[nH]nc(-c3ccc(N4CCN5CCC[C@@H]5C4)nc3)c2c1 [Example 175] = 1 to 20 nM

====

target: FGFR2 (Homo sapiens (Human), UniProt P21802); assay: Kinase assay, binding constants (Kd), kinase-tagged T7 phage, qPCR
Sequence (P21802 22-821): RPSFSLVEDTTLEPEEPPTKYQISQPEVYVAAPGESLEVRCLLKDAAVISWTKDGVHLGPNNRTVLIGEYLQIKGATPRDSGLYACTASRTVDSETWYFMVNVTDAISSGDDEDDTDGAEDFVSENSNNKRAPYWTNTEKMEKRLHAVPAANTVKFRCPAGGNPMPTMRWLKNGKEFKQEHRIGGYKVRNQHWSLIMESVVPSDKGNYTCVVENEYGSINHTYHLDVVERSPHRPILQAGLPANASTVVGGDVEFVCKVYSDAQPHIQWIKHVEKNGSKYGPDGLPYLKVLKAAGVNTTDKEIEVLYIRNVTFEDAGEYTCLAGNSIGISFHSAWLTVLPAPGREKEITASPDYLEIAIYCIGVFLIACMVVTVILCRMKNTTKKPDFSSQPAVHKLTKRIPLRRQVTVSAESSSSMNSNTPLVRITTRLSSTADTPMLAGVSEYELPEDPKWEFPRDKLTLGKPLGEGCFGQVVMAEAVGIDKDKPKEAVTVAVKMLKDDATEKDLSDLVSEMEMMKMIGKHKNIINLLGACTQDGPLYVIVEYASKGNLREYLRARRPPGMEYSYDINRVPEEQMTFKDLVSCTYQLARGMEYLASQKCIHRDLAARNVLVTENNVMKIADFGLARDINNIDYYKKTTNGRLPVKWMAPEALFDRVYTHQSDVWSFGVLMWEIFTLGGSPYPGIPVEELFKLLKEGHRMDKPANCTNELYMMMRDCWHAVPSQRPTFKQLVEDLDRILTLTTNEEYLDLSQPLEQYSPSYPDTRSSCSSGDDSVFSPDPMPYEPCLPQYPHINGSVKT
Below, each entry is listed with its recorded Kd.
Value Type: Kd

* C[C@@H](Oc1ccc2[nH]nc(-c3cnc(N4CCOCC4)c(C#N)c3)c2c1)c1c(Cl)cncc1Cl [Example 102] | 20 to 100 nM
* C[C@@H](Oc1ccc2[nH]nc(-c3cnc(N4CC5(CCCS(=O)(=O)C5)C4)c(C#N)c3)c2c1)c1c(Cl)cncc1Cl [Example 340] | 100 to 300 nM
* C[C@@H](Oc1cc2c(-c3cnc(N4CC5(CCS(=O)(=O)C5)C4)c(C#N)c3)n[nH]c2cc1F)c1c(Cl)cncc1Cl [Example 378] | 20 to 100 nM
* COc1cc2[nH]nc(-c3cnc(N4CC[C@@H](O)C4)c(C#N)c3)c2cc1O[C@H](C)c1c(C)cnnc1C [Example 319] | 20 to 100 nM
* COc1cc2[nH]nc(-c3cnc(N4CC[C@H]4C)c(S(C)(=O)=O)c3)c2cc1O[C@H](C)c1c(Cl)cncc1Cl [Example 372] | 100 to 300 nM
* C[C@@H](Oc1ccc2[nH]nc(-c3cnc(N4CCC4)c(C#N)c3)c2c1)c1c(Cl)cnc(F)c1Cl [Example 286] | > 300 nM
* Cc1cnnc(C)c1[C@@H](C)Oc1ccc2[nH]nc(-c3cnc(N4CCC5(CC4)CCS(=O)(=O)C5)nc3)c2c1 [Example 152] | 1 to 20 nM
* COc1cc(-c2n[nH]c3ccc(O[C@H](C)c4c(C)cnnc4C)cc23)cnc1N1CCN2C(=O)NCC2C1 (stereo partly drawn) [Example 328] | 100 to 300 nM
* Cc1cnnc(C)c1[C@@H](C)Oc1ccc2[nH]nc(-c3cnc(N4CCC[C@H]4CO)c(C#N)c3)c2c1 [Example 336] | 20 to 100 nM
* C[C@@H](Oc1cc2c(-c3cnc(N4CC5(C4)CN(S(C)(=O)=O)C5)c(F)c3)n[nH]c2cc1Cl)c1c(Cl)cnnc1Cl [Example 264] | 1 to 20 nM
* C[C@@H](Oc1ccc2[nH]nc(-c3cnn(C4CCN(C5CCC5)CC4)c3)c2c1)c1cc(F)cc(F)c1 [Example 167] | 20 to 100 nM
* C[C@@H](Oc1ccc2[nH]nc(-c3ccc(N4CC(C(F)(F)F)C4)nc3)c2c1)c1c(Cl)cncc1Cl [Example 249] | 20 to 100 nM
* Cc1cnnc(C)c1[C@@H](C)Oc1ccc2[nH]nc(-c3ccc(N4CC5(CCS(=O)(=O)C5)C4)nc3)c2c1 [Example 144] | 1 to 20 nM
* CCOC(=O)N1CC2(C1)CN(c1ccc(-c3n[nH]c4ccc(O[C@H](C)c5c(Cl)cncc5Cl)cc34)cn1)C2 [Example 121] | 20 to 100 nM
* C[C@@H](Oc1ccc2[nH]nc(-c3cnc(N4CCC5(CCS(=O)(=O)C5)C4)nc3)c2c1)c1c(Cl)cncc1Cl (stereo partly drawn) [Example 127] | 20 to 100 nM
* C[C@@H](Oc1ccc2[nH]nc(-c3ccc(N4CC5(CCOC5)C4)nc3)c2c1)c1c(Cl)cnnc1Cl [Example 223] | 100 to 300 nM
* C[C@@H](Oc1ccc2[nH]nc(-c3cnc(N4CCC5(CCC(=O)N5)CC4)c(F)c3)c2c1)c1c(Cl)cncc1Cl [Example 42] | 20 to 100 nM
* C[C@@H](Oc1ccc2[nH]nc(-c3cnc(N4CC[C@@H]4CO)c(C#N)c3)c2c1)c1c(Cl)cncc1Cl [Example 351] | 100 to 300 nM
* Cc1ncc(Cl)c([C@@H](C)Oc2cc3c(-c4cnc(N5CCC5)c(F)c4)n[nH]c3cc2Cl)c1Cl [Example 274] | 100 to 300 nM
* C[C@@H](Oc1ccc2[nH]nc(-c3ccc(N4CC5(CCS(=O)(=O)CC5)C4)nc3)c2c1)c1c(Cl)cncc1Cl [Example 113] | 1 to 20 nM
* COc1cc2[nH]nc(-c3cnc(N4CC5(C4)CN(S(C)(=O)=O)C5)nc3)c2cc1O[C@H](C)c1c(Cl)cncc1Cl [Example 239] | 1 to 20 nM
* C[C@@H](Oc1ccc2[nH]nc(-c3ccc(N4CC5(CCS(=O)(=O)C5)C4)nc3)c2c1)c1c(Cl)cncc1Cl [Example 117] | 1 to 20 nM
* C[C@@H](Oc1ccc2[nH]nc(-c3ccc(N4CC5(COC5)C4)nc3)c2c1)c1c(Cl)cnnc1Cl [Example 229] | 100 to 300 nM
* C[C@@H](Oc1ccc2[nH]nc(-c3ccc(N4CCN(S(C)(=O)=O)C5(CC5)C4)nc3)c2c1)c1c(Cl)cncc1Cl [Example 22] | 20 to 100 nM
* C[C@@H](Oc1cc2c(-c3ccc(N4CC5(C4)CN(S(C)(=O)=O)C5)nc3)n[nH]c2cc1Cl)c1c(Cl)cncc1Cl [Example 260] | 1 to 20 nM
* C[C@@H](Oc1ccc2[nH]nc(-c3ccc(N4CC(C#N)C4)nc3)c2c1)c1c(Cl)cncc1Cl [Example 253] | 1 to 20 nM
* Cc1cnnc(C)c1[C@@H](C)Oc1ccc2[nH]nc(-c3cnc(N4CC5(CCS(=O)(=O)C5)C4)nc3)c2c1 [Example 141] | 20 to 100 nM
